B1: LINE1-mini (parent)
chain: GGCAGAGCUCAACACAGCGUGGCAAAGUGGCUGUGGCUAGACUGCC

Variants of: B1
Test: self-cleavage, relative activity (ratio to wild type); higher = more cleavage; in vitro, sequencing; the parent is a self-cleaving ribozyme
Grouping key: self-cleavage. Bins: lo: < 0.05; mid: ≥ 0.05 and < 0.1; hi: ≥ 0.1

1. C8G G40C    mid
2. C15U U34C    hi
3. A6U A12U    hi
4. A12G A14C    lo
5. C8A C46G    hi
6. C23G A26G    hi
7. C13A G30A    mid
8. A4C U34C    hi
9. G35C C42G    lo
10. C23U A25G    hi
